tested on: MRSA 33; test: MIC by agar incorporation method, MRSA 33; format: cell-based, Methicillin Resistant Staphylococcus aureus; set-up: unit not given here; conditions: Mueller Hinton agar, 10^4 CFU/spot, 24 hours
readout.name: In Vitro (MIC) MRSA 33

Sample answers from the record:
>>> meas_value("CC(=O)NC[C@H]1CN(c2ccc(N3CCN(Cc4cc(Br)c([N+](=O)[O-])s4)CC3)c(F)c2)C(=O)O1 [Compound No. 4]")
2
>>> meas_value("CC(=O)NC[C@H]1CN(c2ccc(N3CCN(C(=O)c4ccc(NC(C)=O)s4)CC3)c(F)c2)C(=O)O1 [Compound No. 29]")
4
>>> meas_value("CC(=O)NC[C@H]1CN(c2ccc(N3CCC(N(C)Cc4ccc([N+](=O)[O-])s4)C3)c(F)c2)C(=O)O1 (stereo partly shown) [Compound No. 90]")
4
>>> meas_value("CC(=O)NC[C@H]1CN(c2ccc(N3C(C)CN(C(=O)Cc4cccs4)CC3C)c(F)c2)C(=O)O1 (stereo partly shown) [Compound No. 66]")
8
>>> meas_value("CC(=O)NC[C@H]1CN(c2ccc(N3CCN(Cc4ccc([N+](=O)[O-])o4)CC3C)c(F)c2)C(=O)O1 (stereo partly shown) [Compound No. 58]")
4

(A) CC(=O)NC[C@H]1CN(c2ccc(N3C(C)CN(Cc4ccc([N+](=O)[O-])o4)CC3C)c(F)c2)C(=O)O1 (stereo partly shown) [Compound No. 63]
(B) CC(=O)NC[C@H]1CN(c2ccc(N3CCC(N(C)C(=O)c4ccc([N+](=O)[O-])o4)C3)c(F)c2)C(=O)O1 (stereo partly shown) [Compound No. 92]
In the pair A and B , the larger recorded In Vitro (MIC) MRSA 33 belongs to which? # respond with the chosen item's label
A

Origin of the recorded values: patent US20040242591A1
